Values were extracted from patent US20230374147A1.

- assay target: T1, His-tagged human BCMA (Acro Biosystems, Cat. #BCA-H522y) (human, UniProt Q02223 1-54)
- T1 construct: also called huBCMA; P1; not shown: His tag
- T1 sequence: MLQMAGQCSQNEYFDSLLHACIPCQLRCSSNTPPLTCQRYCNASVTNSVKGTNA
- experimental protocol: ELISA, hybridoma supernatant, coated His-tagged antigen; also: test concentration or dose not given here
readout kind: ELISA values (OD 450 nm)

* 539-SP1-C8 (antibody produced by the hybridoma) (antibody, V domains shown, Mouse antibody from B cell hybridoma (culture supernatant or IgG purified from it)) VH: EVQLQQSGPELVKPGSSVKMSCKASGYTFTNYVMHWVKQKPGQGLEWIGYILPYNDGTKYNEKFKGKATLTSDKSSSTAYMEFSVLTSEDSAVYYCARYDYEGSFDYWGQGTALTVSS VL: DIQMTQTTSSLSASLGDRVTISCRASQDISNYLNWYQQKPDGTVKLLMCYTSRLHSGVPSRFSGSGSGTDFSLTISNLEQEDIATYFCQQGNTFPPTFGGGTKLEIK | 0.686 OD
* 552-LN1-E9 (antibody produced by the hybridoma) (antibody, V domains shown, Mouse antibody from B cell hybridoma (culture supernatant or IgG purified from it)) VH: QIQLVQSGPELKKPGETVKISCKASGYTFTDYSIYWVKQAPGKGLKWMGWINTETGEPTYADDFKGRFAFSLETSASSAYLQINTLKNEDTATYFCSISYYYAMDYWGQGTSVTVSS VL: DIVLTQSPASLAVSLGQRATISCRASKSVSTSGYSFLHWYQQKPGQPPKLLIYFASNLESGVPARFSGSGSGTDFTLNIHPVEEEDAATYYCQHSRELPRTFGGGTKLEIK | 0.836 OD
* 552-LN2-F8 (antibody produced by the hybridoma) (antibody, V domains shown, Mouse antibody from B cell hybridoma (culture supernatant or IgG purified from it)) VH: QIQLVQSGPELKKPGETVKISCKASGYTFTDYTMYWVKQAPGKGLKWMGWINTETGEPTYADDFKGRFVFSLETSANTAYLQINNLKNEDTATYFCAISYYYGMDYWGQGTSVTVTS VL: DIILTQSPASLAVSLGQRATITCRASKSVSTSGYNFVYWYQQKPGQPPKLLIYLASNLESGVPARFSGSGSGTDFTLNIHPVEEEDAATYYCQHSRELPRTFGGGTKLEIK | 0.884 OD
* 539-SP7-F4 (antibody produced by the hybridoma) (antibody, V domains shown, Mouse antibody from B cell hybridoma (culture supernatant or IgG purified from it)) VH: EVQLQQSGPELVKPGASMKISCKASGYSFTGYIMNWVKQSHGKNLEWIGLINPYNGDSIYNQKFKGKATLTVDKSSSTAYMELFSLTSEDSTVYYCAAGEEFAYWGQGTLVTVSA VL: DIQMTQTSSSLSASLGDRVTISCRASQDISIYLNWFQQKPDGTVKLLIYFTSRLHPGVPSRFSASGSGTDYSLTISHLEHEDIATYFCQQGNTLPRTFGGGTKVELK | 0.893 OD
* 552-LN1-F4 (antibody produced by the hybridoma) (antibody, V domains shown, Mouse antibody from B cell hybridoma (culture supernatant or IgG purified from it)) VH: QIQLVQSGPELKKPGETVKISCMASGYTFTDYSVRWVKQAPGKGLEWMGWINTETGEPTYAHDFKGRFAFSLETSASTAYLQINNLKDEDTSTYFCAISYYYALDYWGHGTSVTVSS VL: DIVLTQSPASLTVSLGQRATISCRASKSVSTSGYNFLHWYQQKPGQPPKLLIYLASNLESGAPARFSGSGSGTDFTLNIHPVEEEDAATYYCQHSRELPRTFGGGTKLEIK | 0.845 OD
* 539-SP2-H3 (antibody produced by the hybridoma) (antibody, V domains shown, Mouse antibody from B cell hybridoma (culture supernatant or IgG purified from it)) VH: EVQLQQSGPELVKPGASVKMSCKASGYTFTSYVIHWVKQKPGQGLEWIGYVLPYNDVIKYNEKFKGKATLTSDKSSSTAYMDLSSLTSEDSAVYYCARWGDFDEGIWFPYWGQGTLVTVSA VL: DVLMTQTPLSLPVSLGDHASVSCRSSQSIVHTDGNTYLEWYLQKPGQSPKLLIYKVSNRFSGVPDRFSGSGSGTDFTLKISRVEAEDLGVYYCFQGSHVPWTFGGGTKLEIK | 0.813 OD
* 552-LN2-E6 (antibody produced by the hybridoma) (antibody, V domains shown, Mouse antibody from B cell hybridoma (culture supernatant or IgG purified from it)) VH: QIQLVQSGPELKKPGETVKISCMASGYTFTDYSVRWVKQAPGKGLEWMGWINTETGEPTYADDFKGRFAFSLETSASTAYLQINNLKNEDTATYFCAISYYYALDYWGHGTSVTVSS VL: DIVLTQSPASLTVSLGQRATISCRASKSVSTSVYSFLHWYQQKPGQPPKLLIYLASNLESGVPARFSGSGSGTDFTLNIHPVEEEDAATYYCQHSRELPRTFGGGTKLEIK | 0.832 OD
* 539-SP5-D7 (antibody produced by the hybridoma) (antibody, V domains shown, Mouse antibody from B cell hybridoma (culture supernatant or IgG purified from it)) VH: EVMLVDSGGNLVKPGGSLKLSCAASGFTFSNYVISWVRQTPEKRLEWVATISTVGTNTYYPDSVRGRFTISRDNAENTLYLQMSSLRSEDTAIYYCSRHKYGYDDPSYAMDYWGQGTSVTVSS VL: QLVLTQSSSASFSLGASAKLTCTLSSQHSTYTIEWYQQQPLKPPKYVMELKKDGSHSTGDGIPDRFSGSSSGADRYLSISNIQAEDEAIYICGVGDTVKEQFVYVFGGGTKVTVL | 0.817 OD
* 538-SP5-B10 (antibody produced by the hybridoma) (antibody, V domains shown, Mouse antibody from B cell hybridoma (culture supernatant or IgG purified from it)) VH: EVQLQQSGPELVKPGASVKMSCKASGYTFTSYVMHWVKQKPGRGLEWIAYILPFNDVTKYNEKFKGKATLTSDKSSNTAYMELSSLTSEDSAVYYCARWEWDDGYFDYWGQGTTLTVSS VL: DAVMTQTPLSLPVSLGDQASISCRSSQSLENSNGNTYLNWYLQKPGQSPQLLIYRVSNRFSGVLDRFSGSGSGTDFTLKISRVEAEDLGVYFCLQVSHVPFTFGAGTKLELK | 0.812 OD
